List of IC50 values.
test.system: MRGPRX4 (Homo sapiens, UniProt Q96LA9)
Sequence (Q96LA9 whole entry): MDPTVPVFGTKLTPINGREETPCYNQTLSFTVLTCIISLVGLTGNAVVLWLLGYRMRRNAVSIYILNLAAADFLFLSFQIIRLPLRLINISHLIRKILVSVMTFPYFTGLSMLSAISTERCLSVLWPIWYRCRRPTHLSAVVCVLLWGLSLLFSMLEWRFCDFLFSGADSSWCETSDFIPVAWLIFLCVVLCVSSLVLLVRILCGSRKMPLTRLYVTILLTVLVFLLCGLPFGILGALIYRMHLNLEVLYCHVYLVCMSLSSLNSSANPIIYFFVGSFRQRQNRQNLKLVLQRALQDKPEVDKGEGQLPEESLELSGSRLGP
assay.remarks: Detection of MRGPRX4 activity (IP1 HTRF, deoxycholic acid stimulation)
details: HEK-293 cells stably expressing MRGPRX4; compound 45 min, then deoxycholic acid 45 min; IP1 content by HTRF

See these solved cases before continuing.
O=C(O)c1cccc(Cn2ccc3cc(Cl)cc(Cl)c32)c1F	≤ 200 nM
O=C(O)c1cccc(Cn2ncc3cc(Cl)c(F)c(Cl)c32)c1F	≤ 200 nM
Cc1cc(C(F)(F)F)cc2ccn(Cc3cccc(C(=O)O)c3F)c12	≤ 200 nM
O=C(O)c1cccc(Cn2ccc3c(Cl)ccc(Cl)c32)c1F	500 to 1000 nM

Now look at this entry.
Return IC50 (reported value) for this molecule: N#Cc1ccc2c(ccn2Cc2cccc(C(=O)O)c2F)c1Cl
≤ 200 nM
